molecular target: Wee1A kinase (CDK1 Tyr15 phosphorylation in ACHN renal cell carcinoma cells) (Homo sapiens, UniProt P30291); construct: pCDK1 Tyr15 immunofluorescence read-out; experiment: High-content imaging of pCdk1 Y15, Wee1A kinase target engagement in ACHN cells; format: cell-based; conditions: 4 h treatment, nuclear positivity for pCdk1 Y15 vs DMSO control, read-out: CDK1 Tyr15 Phosphorylation EC50
Sequence (P30291 whole entry): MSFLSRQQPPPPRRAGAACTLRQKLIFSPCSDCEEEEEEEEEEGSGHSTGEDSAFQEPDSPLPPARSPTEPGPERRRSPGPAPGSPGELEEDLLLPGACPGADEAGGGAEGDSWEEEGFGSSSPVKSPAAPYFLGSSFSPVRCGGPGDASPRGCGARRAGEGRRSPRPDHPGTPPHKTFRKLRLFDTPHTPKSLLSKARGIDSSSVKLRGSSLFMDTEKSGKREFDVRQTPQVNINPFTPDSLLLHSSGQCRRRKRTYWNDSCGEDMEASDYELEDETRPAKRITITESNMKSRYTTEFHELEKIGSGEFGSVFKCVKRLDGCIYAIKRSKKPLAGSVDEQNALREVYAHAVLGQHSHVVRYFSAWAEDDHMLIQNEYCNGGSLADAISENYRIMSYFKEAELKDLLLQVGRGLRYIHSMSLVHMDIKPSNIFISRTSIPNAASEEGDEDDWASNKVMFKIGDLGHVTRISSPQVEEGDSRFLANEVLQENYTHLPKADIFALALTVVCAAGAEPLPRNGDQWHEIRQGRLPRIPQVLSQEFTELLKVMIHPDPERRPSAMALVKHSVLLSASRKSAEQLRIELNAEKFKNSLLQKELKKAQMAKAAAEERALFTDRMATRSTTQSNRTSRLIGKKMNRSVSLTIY
Reported Metric: EC50

C=CCn1c(=O)c2cnc(Nc3ccc4ncccc4c3)nc2n1-c1cccc(OC2CCNCC2)n1	100 to 500 nM
C=CCn1c(=O)c2cnc(Nc3ccc(OCC)cc3)nc2n1-c1cccc(OC2CCN(C)CC2)n1	< 100 nM
C=CCn1c(=O)c2cnc(Nc3cccc(-n4ccnc4)c3)nc2n1-c1cccc(OC2CCN(C)CC2)n1	< 100 nM
CCn1c(=O)c2cnc(Nc3ccccc3)nc2n1-c1cccc(OC2CCN(C)CC2)n1	< 100 nM
C=CCn1c(=O)c2cnc(Nc3ccc4c(cnn4C)c3)nc2n1-c1cccc(OC2CCN(C)CC2)n1	< 100 nM
C=CCn1c(=O)c2cnc(Nc3ccc(F)cc3)nc2n1-c1cccc(OC2CCCNCC2)n1 (single isomer, unassigned) [Compound 344]	100 to 500 nM
C=CCn1c(=O)c2cnc(Nc3ccc4c(cnn4C)c3)nc2n1-c1cccc(N[C@@H]2CCN(C(C)C)C2)n1	< 100 nM
CCn1c(=O)c2cnc(Nc3ccc4c(c3)ncn4C)nc2n1-c1cccc(OC2CCN(C)CC2)n1	< 100 nM
C=CCn1c(=O)c2cnc(Nc3ccc(C#N)cc3)nc2n1-c1cccc(OC2CCN(C)CC2)n1	< 100 nM
C=CCn1c(=O)c2cnc(Nc3ccc4c(cnn4C4CC4)c3)nc2n1-c1cccc(OC2CCN(C)CC2)n1	< 100 nM
C=CCn1c(=O)c2cnc(Nc3ccc4c(cnn4C)c3)nc2n1-c1cccc(O[C@H]2CCCN(C)C2)n1	< 100 nM
C=CCn1c(=O)c2cnc(Nc3ccc(F)cc3)nc2n1-c1cccc(OC2CCCNCC2)n1 (stereo not drawn) [Compound 315]	500 to 1000 nM
C=CCn1c(=O)c2cnc(Nc3ccc4c(cnn4CC)c3)nc2n1-c1cccc(OC2CCNCC2)n1	< 100 nM
CCn1c(=O)c2cnc(Nc3ccc(-c4cnn(C)c4)cc3)nc2n1-c1cccc(OC2CCNCC2)n1	100 to 500 nM
C=CCn1c(=O)c2cnc(Nc3ccc4c(c3)ncn4C(C)C)nc2n1-c1cccc(OC2CCN(C)CC2)n1	< 100 nM

* * *

molecular target: Myt1 kinase (CDK1 Thr14 phosphorylation in ACHN renal cell carcinoma cells) (Homo sapiens, UniProt Q99640); construct: pCDK1 Thr14 AlphaLISA read-out; assay: AlphaLISA assay, Myt1 kinase target engagement (phospho-CDK1 Thr14) in ACHN cells; conditions: ACHN cells (marked *); 4 h treatment
Sequence (Q99640 whole entry): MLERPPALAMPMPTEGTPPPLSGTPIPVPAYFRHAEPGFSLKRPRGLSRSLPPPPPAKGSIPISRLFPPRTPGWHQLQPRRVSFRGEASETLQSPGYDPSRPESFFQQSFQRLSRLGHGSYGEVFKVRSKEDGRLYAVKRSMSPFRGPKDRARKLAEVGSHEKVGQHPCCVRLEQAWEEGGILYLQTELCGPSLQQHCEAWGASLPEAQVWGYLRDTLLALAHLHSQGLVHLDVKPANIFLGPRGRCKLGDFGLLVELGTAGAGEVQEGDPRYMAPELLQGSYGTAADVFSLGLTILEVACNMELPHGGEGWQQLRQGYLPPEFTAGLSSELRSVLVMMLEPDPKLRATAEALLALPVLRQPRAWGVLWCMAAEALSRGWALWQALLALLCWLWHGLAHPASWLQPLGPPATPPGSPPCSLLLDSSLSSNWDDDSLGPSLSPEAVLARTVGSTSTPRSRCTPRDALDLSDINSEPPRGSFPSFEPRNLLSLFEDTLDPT
pEC50: −log10 of the molar value.
Reported pEC50 values are given for each entry in this list.
Reported Metric: pEC50

C=CCn1c(=O)c2cnc(Nc3ccc(N4CCOCC4)cc3)nc2n1-c1cccc(OC2CCN(C)CC2)n1 [Compound 278]	> 6.70
C=CCn1c(=O)c2cnc(Nc3ccc4c(cnn4CC)c3)nc2n1-c1cccc(OC2CCNCC2)n1 [Compound 280]	6.30 to 6.70
C=CCn1c(=O)c2cnc(Nc3ccc4c(cnn4C)c3)nc2n1-c1cccc(OC2CCCN(C)CC2)n1 (single isomer, unassigned) [Compound 373]	6.30 to 6.70
C=CCn1c(=O)c2cnc(Nc3ccc4cnn(C)c4c3)nc2n1-c1cccc(OC2CCN(C)CC2)n1 [Compound 389]	> 6.70
